- Tested on: NanoLuc luciferase (NLuc)
- assay.name: residual bioluminescent signal relative to negative (DMSO) control; higher = less interference (more residual luciferase signal)
- measurement.context: metal salt concentration 0.01 mM; HEPES conditions (100 mM HEPES, 0.1% BSA, pH 7.5)
experimental.endpoint: residual bioluminescent signal (%)
Give a bare numeral; the unit % is implied.

Q. Give the reported value of residual bioluminescent signal for this record: O=[N+]([O-])[O-].[K+] [potassium nitrate]
A. 95.2

Q. Give the reported value of residual bioluminescent signal for this record: O=[N+]([O-])[O-].O=[N+]([O-])[O-].[Ni+2] [nickel(II) nitrate]
A. 89

Q. Give the reported value of residual bioluminescent signal for this record: O=[N+]([O-])[O-].O=[N+]([O-])[O-].[Cd+2] [cadmium nitrate]
A. 93.8

Q. Give the reported value of residual bioluminescent signal for this record: O=[N+]([O-])[O-].O=[N+]([O-])[O-].[Ca+2] [calcium nitrate]
A. 97.1

Q. Give the reported value of residual bioluminescent signal for this record: O=[N+]([O-])[O-].O=[N+]([O-])[O-].[Pb+2] [lead(II) nitrate]
A. 94

Q. Give the reported value of residual bioluminescent signal for this record: O=[N+]([O-])[O-].[Na+] [sodium nitrate]
A. 89.7

Q. Give the reported value of residual bioluminescent signal for this record: O=[N+]([O-])[O-].[Li+] [lithium nitrate]
A. 93.2

Q. Give the reported value of residual bioluminescent signal for this record: O=[N+]([O-])[O-].O=[N+]([O-])[O-].O=[N+]([O-])[O-].[Ga+3] [gallium(III) nitrate]
A. 96.1

###

- Tested on: Renilla luciferase (RLuc)
- assay.name: residual bioluminescent signal relative to negative (DMSO) control; higher = less interference (more residual luciferase signal)
- measurement.context: metal salt concentration 5 mM; screening conditions (50 mM Tris-HCl, […] KH2PO4, […] NaCl, 0.25 mM EDTA, 0.1% BSA, 0.3 M sodium ascorbate, pH 7.4)
What residual bioluminescent signal was measured for each of the following?

Q. Give the reported value of residual bioluminescent signal for this record: O=[N+]([O-])[O-].[Li+] [lithium nitrate]
A. 88.5%

Q. Give the reported value of residual bioluminescent signal for this record: O=[N+]([O-])[O-].O=[N+]([O-])[O-].[Pb+2] [lead(II) nitrate]
A. 5.96%

Q. Give the reported value of residual bioluminescent signal for this record: O=[N+]([O-])[O-].O=[N+]([O-])[O-].[Cu+2] [copper(II) nitrate]
A. 0.897%

Q. Give the reported value of residual bioluminescent signal for this record: O=[N+]([O-])[O-].[Na+] [sodium nitrate]
A. 107%

Q. Give the reported value of residual bioluminescent signal for this record: O=[N+]([O-])[O-].O=[N+]([O-])[O-].[Cd+2] [cadmium nitrate]
A. 12.2%

###

What residual bioluminescent signal was measured for each of the following?
- Test system: Renilla luciferase (RLuc)
- assay.name: residual bioluminescent signal relative to negative (DMSO) control; higher = less interference (more residual luciferase signal)
- measurement.context: metal salt concentration 5 mM; screening conditions (50 mM Tris-HCl, […] KH2PO4, […] NaCl, 0.25 mM EDTA, 0.1% BSA, 0.3 M sodium ascorbate, pH 7.4)
Give a bare numeral; the unit % is implied.

Q. Give the reported value of residual bioluminescent signal for this record: O=[N+]([O-])[O-].O=[N+]([O-])[O-].O=[N+]([O-])[O-].[Al+3] [aluminium nitrate]
A. 94.2

Q. Give the reported value of residual bioluminescent signal for this record: O=[N+]([O-])[O-].O=[N+]([O-])[O-].O=[N+]([O-])[O-].[Ga+3] [gallium(III) nitrate]
A. 1.92

Q. Give the reported value of residual bioluminescent signal for this record: O=[N+]([O-])[O-].O=[N+]([O-])[O-].[Ca+2] [calcium nitrate]
A. 19.5

###

- System: NanoLuc luciferase (NLuc)
- assay.name: residual bioluminescent signal relative to negative (DMSO) control; higher = less interference (more residual luciferase signal)
- measurement.context: metal salt concentration 1 mM; screening conditions (PBS, 0.1% BSA, pH 7.4)
residual bioluminescent signal below 90% gives f; residual bioluminescent signal at or above it gives t.

Q. Exam item: decide whether the reported residual bioluminescent signal for [Cl][Sn][Cl] [tin(II) chloride] is at least 90%.
A. f

Q. Exam item: decide whether the reported residual bioluminescent signal for O=[N+]([O-])[O-].[Li+] [lithium nitrate] is at least 90%.
A. t

Q. Exam item: decide whether the reported residual bioluminescent signal for O=[N+]([O-])[O-].O=[N+]([O-])[O-].O=[N+]([O-])[O-].[Ga+3] [gallium(III) nitrate] is at least 90%.
A. f

Q. Exam item: decide whether the reported residual bioluminescent signal for O=[N+]([O-])[O-].[Ag+] [silver nitrate] is at least 90%.
A. f

Q. Exam item: decide whether the reported residual bioluminescent signal for O=[N+]([O-])[O-].O=[N+]([O-])[O-].[Zn+2] [zinc nitrate] is at least 90%.
A. f

Q. Exam item: decide whether the reported residual bioluminescent signal for O=[N+]([O-])[O-].O=[N+]([O-])[O-].[Cu+2] [copper(II) nitrate] is at least 90%.
A. f

Q. Exam item: decide whether the reported residual bioluminescent signal for O=[N+]([O-])[O-].[Na+] [sodium nitrate] is at least 90%.
A. t

Q. Exam item: decide whether the reported residual bioluminescent signal for O=[N+]([O-])[O-].O=[N+]([O-])[O-].[Cd+2] [cadmium nitrate] is at least 90%.
A. f

###

What residual bioluminescent signal was measured for each of the following?
- Tested on: firefly luciferase (FLuc)
- assay.name: residual bioluminescent signal relative to negative (DMSO) control; higher = less interference (more residual luciferase signal)
- measurement.context: metal salt concentration 5 mM; HEPES conditions (100 mM HEPES, 5 mM MgSO4, 10 uM ATP, pH 7.5)
Please report the result as a number followed by the unit.

Q. Give the reported value of residual bioluminescent signal for this record: O=[N+]([O-])[O-].[Na+] [sodium nitrate]
A. 60%

Q. Give the reported value of residual bioluminescent signal for this record: [Cl][Sn][Cl] [tin(II) chloride]
A. 1.9%

Q. Give the reported value of residual bioluminescent signal for this record: O=[N+]([O-])[O-].[Li+] [lithium nitrate]
A. 90.5%

Q. Give the reported value of residual bioluminescent signal for this record: O=[N+]([O-])[O-].O=[N+]([O-])[O-].[Ca+2] [calcium nitrate]
A. 29.2%

###

- Tested on: NanoLuc luciferase (NLuc)
- assay.name: residual bioluminescent signal relative to negative (DMSO) control; higher = less interference (more residual luciferase signal)
- measurement.context: metal salt concentration 1 mM; HEPES conditions (100 mM HEPES, 0.1% BSA, pH 7.5)
What residual bioluminescent signal was measured for each of the following?
Give a bare numeral; the unit % is implied.

Q. Give the reported value of residual bioluminescent signal for this record: O=[N+]([O-])[O-].O=[N+]([O-])[O-].[Cu+2] [copper(II) nitrate]
A. 0.235

Q. Give the reported value of residual bioluminescent signal for this record: O=[N+]([O-])[O-].O=[N+]([O-])[O-].O=[N+]([O-])[O-].[Al+3] [aluminium nitrate]
A. 68.7

Q. Give the reported value of residual bioluminescent signal for this record: O=[N+]([O-])[O-].O=[N+]([O-])[O-].[Cd+2] [cadmium nitrate]
A. 74.6

Q. Give the reported value of residual bioluminescent signal for this record: O=[N+]([O-])[O-].[Na+] [sodium nitrate]
A. 91.8

Q. Give the reported value of residual bioluminescent signal for this record: O=[N+]([O-])[O-].[K+] [potassium nitrate]
A. 90.9

Q. Give the reported value of residual bioluminescent signal for this record: O=[N+]([O-])[O-].O=[N+]([O-])[O-].[Ni+2] [nickel(II) nitrate]
A. 87.6

###

- Tested on: firefly luciferase (FLuc)
- assay.name: residual bioluminescent signal relative to negative (DMSO) control; higher = less interference (more residual luciferase signal)
- measurement.context: metal salt concentration 5 mM; screening conditions (0.5 mM Tris, 50 mM glycine, 0.5 mM EDTA, 5 mM MgSO4, 10 uM ATP, pH 7.6)
residual bioluminescent signal below 20% gives false; residual bioluminescent signal at or above it gives true.

Q. Exam item: decide whether the reported residual bioluminescent signal for O=[N+]([O-])[O-].O=[N+]([O-])[O-].[Cu+2] [copper(II) nitrate] is at least 20%.
A. false

Q. Exam item: decide whether the reported residual bioluminescent signal for O=[N+]([O-])[O-].[Li+] [lithium nitrate] is at least 20%.
A. true

Q. Exam item: decide whether the reported residual bioluminescent signal for O=[N+]([O-])[O-].[Na+] [sodium nitrate] is at least 20%.
A. true

Q. Exam item: decide whether the reported residual bioluminescent signal for O=[N+]([O-])[O-].O=[N+]([O-])[O-].[Ca+2] [calcium nitrate] is at least 20%.
A. true

Q. Exam item: decide whether the reported residual bioluminescent signal for O=[N+]([O-])[O-].O=[N+]([O-])[O-].[Zn+2] [zinc nitrate] is at least 20%.
A. false

Q. Exam item: decide whether the reported residual bioluminescent signal for O=[N+]([O-])[O-].O=[N+]([O-])[O-].[Pb+2] [lead(II) nitrate] is at least 20%.
A. false

Q. Exam item: decide whether the reported residual bioluminescent signal for O=[N+]([O-])[O-].O=[N+]([O-])[O-].O=[N+]([O-])[O-].[Ga+3] [gallium(III) nitrate] is at least 20%.
A. false

Q. Exam item: decide whether the reported residual bioluminescent signal for O=[N+]([O-])[O-].[Ag+] [silver nitrate] is at least 20%.
A. false

Q. Exam item: decide whether the reported residual bioluminescent signal for O=[N+]([O-])[O-].[K+] [potassium nitrate] is at least 20%.
A. true
